# Test system: OVMIU (Ovarian Carcinoma)
# procedure summary: combination Emax (second highest fraction inhibited in the dose matrix, 72 h); higher = more inhibition; extreme values may be limits of the assay

compound	tested system	combination Emax
Cc1c2c(nn1C)CSCc1cc(n(C)n1)CSc1cc(c3ccccc3c1)OCCCc1c(C(=O)O)n(C)c3c-2c(Cl)ccc13 [AZD5991] + CS(=O)(=O)CCNCc1ccc(-c2ccc3ncnc(Nc4ccc(OCc5cccc(F)c5)c(Cl)c4)c3c2)o1 [Lapatinib] (first compound max 1 µM, 7x7, partner max 10 µM)	OVMIU (Ovarian Carcinoma)	0.687
CN(C)CCCOc1ccc(-c2ccc3ncc4c(c3c2)n(C2CCOCC2)c(=O)n4C)cn1 [AZD0156] + O=C(c1cc(Cc2n[nH]c(=O)c3ccccc23)ccc1F)N1CCN(C(=O)C2CC2)CC1 [Olaparib] (first compound max 3 µM, partner max 3 µM)	OVMIU (Ovarian Carcinoma)	0.347
C[C@@H](c1ccc2nccn2c1)n1nnc2ncc(-c3cnn(C)c3)nc21 [Savolitinib] + Cc1c2c(nn1C)CSCc1cc(n(C)n1)CSc1cc(c3ccccc3c1)OCCCc1c(C(=O)O)n(C)c3c-2c(Cl)ccc13 [AZD5991] (first compound max 1 µM, 7x7, partner max 1 µM)	OVMIU (Ovarian Carcinoma)	0.114
CN(CCO)CC[C@H](CSc1ccccc1)Nc1ccc(S(=O)(=O)NC(=O)c2ccc(N3CCC([C@@H](O)c4ccccc4-c4ccc(Cl)cc4)CC3)cc2)cc1S(=O)(=O)C(F)(F)F [AZD4320] + CN(C)CCCOc1ccc(-c2ccc3ncc4c(c3c2)n(C2CCOCC2)c(=O)n4C)cn1 [AZD0156] (first compound max 1 µM, 7x7, partner max 1 µM)	OVMIU (Ovarian Carcinoma)	0.771
